- System: NCI-H23
- METHOD_DESCRIPTION: NCI tumour cell line growth inhibition, 48 h
Activity calls are given as the source filed them. No stated cut-off is given here; in the data, active = GI50 up to about 1.1 µM and inactive = higher.
MEASURE_NAME: GI50

Recorded GI50, per entry:
{"COMPOUND": "CCN1CCN(c2ccc(Nc3ccnc4ccc5c(nnn5C)c34)cc2)CC1", "GI50": "11.6 µM (inactive)"}
{"COMPOUND": "COc1ccc2oc(C(=O)O)c3c2c1CCC3CCC(=O)O (stereo unspecified)", "GI50": "> 100 µM (inactive)"}
{"COMPOUND": "CCOC(=O)c1c(Nc2ccccc2)sc2cccnc12", "GI50": "30.3 µM (inactive)"}
{"COMPOUND": "O=C1Oc2ccccc2C(=O)/C1=C/NC(=S)NCCc1ccccc1", "GI50": "33.1 µM (inactive)"}
{"COMPOUND": "COC(=O)C1=C(C)NC(C)=C(C(=O)OC)C1c1ccccc1NO", "GI50": "> 100 µM (inactive)"}

Moving on to another compound below.
So for Clc1ccc(-c2nc(-c3ccc(Cl)cc3)[s+]s2)cc1 , the logged GI50 turned out to be 78 µM (inactive)

----------
- System: SW-620
- METHOD_DESCRIPTION: NCI tumour cell line growth inhibition, 48 h
The source made the active and inactive calls. No stated cut-off is given here; in the data, active = GI50 up to about 1.1 µM and inactive = higher.
Tick one outcome: Y = active, N = inactive

{"COMPOUND": "Cc1ccccc1C(=O)c1c(O)c2c(c(O)c1Br)CCCC2", "CLASS_ASSIGNMENT": "N"}
{"COMPOUND": "COc1cc2c(cc1OC(=O)c1cc3ccccc3[nH]1)N=C[C@@H]1CCCN1C2=O", "CLASS_ASSIGNMENT": "Y"}
{"COMPOUND": "Cc1nc2c(o1)/C(=N\\c1ccccc1)c1ccccc1/C2=N/c1ccccc1", "CLASS_ASSIGNMENT": "N"}
{"COMPOUND": "CCCCCCn1c(SC)nc(COC(=O)NC)c1COC(=O)NC", "CLASS_ASSIGNMENT": "N"}
{"COMPOUND": "O=C(/C=C1\\C[C@H]2C=Nc3ccccc3C(=O)N2C1)NCCCCCNC(=O)/C=C1\\C[C@H]2C=Nc3ccccc3C(=O)N2C1", "CLASS_ASSIGNMENT": "N"}

Query :: Write down the call the test reported for this compound. Item: COC(=O)/C=C1/OC(c2ccccc2)=C(Br)C1=O
Result :: N

Query :: Record request — test call for COC(=O)CC(C(C(=O)OCc1ccccc1)C(C)O)N1C(=O)OC(c2ccccc2)C1c1ccccc1 (centres undefined)
Result :: N

Query :: Dear colleague, could you share the recorded outcome for Cc1cc(S(=O)(=O)n2ccnc2Oc2cccc(Cl)c2)c(SSc2cc(Cl)c(C)cc2S(=O)(=O)n2ccnc2Oc2cccc(Cl)c2)cc1Cl when you have a moment?
Result :: N

Query :: Tell me the recorded outcome of this test for Cc1cc2nc(CC(C(F)(F)F)C(F)(F)F)oc2cc1C .
Result :: Y

----------
- Tested on: SNB-19
- METHOD_DESCRIPTION: NCI tumour cell line growth inhibition, 48 h
Active and inactive are the calls of the source. No stated cut-off is given here; in the data, active = GI50 up to about 1.1 µM and inactive = higher.
The categories you may choose from are true (1) = active, false (0) = inactive

For orientation, consider the following solved cases.
{"COMPOUND": "O=C(Nc1ccccc1C(=O)O)C(=Cc1ccccc1O)NC(=O)c1ccccc1", "TARGET_SYSTEM": "SNB-19", "CLASS_ASSIGNMENT": "false (0)"}
{"COMPOUND": "CCOC(=O)c1ccc2nc(-c3ccc(S(=O)(=O)F)cc3)cc(O)c2c1", "TARGET_SYSTEM": "SNB-19", "CLASS_ASSIGNMENT": "false (0)"}
{"COMPOUND": "C=C1CC(COc2ccc3c(C)c(Cl)c(=O)oc3c2)(c2ccccc2)OC1=O (stereo not drawn)", "TARGET_SYSTEM": "SNB-19", "CLASS_ASSIGNMENT": "false (0)"}
{"COMPOUND": "COc1ccc(-[n+]2nc(S(=O)(=O)O)c(/C=C/c3ccc(N(C)C)cc3)cc2C#N)cc1", "TARGET_SYSTEM": "SNB-19", "CLASS_ASSIGNMENT": "false (0)"}
{"COMPOUND": "CN(C)/N=C(\\CCN1CCCC1)CC(c1ccccc1)c1c(O)c2ccccc2oc1=O (stereo not drawn)", "TARGET_SYSTEM": "SNB-19", "CLASS_ASSIGNMENT": "false (0)"}

Query :: Please share the test call associated with CCN(CC)CCCNc1nc(=O)[nH]c(C)c1C(=O)Nc1cccc2cc3ccccc3cc12 .
Result :: false (0)

Query :: # lookup: test call for C[n+]1c(-c2ccc(/C=C/C=N\NC(=O)c3ccc(C(=O)N/N=C\C=C\c4ccc(-c5cn6ccccc6[n+]5C)cc4)cc3)cc2)cn2ccccc21
Result :: false (0)

Query :: How did this test come out for Cc1cccc(C(C)(C)C)c1NC(=O)CCc1nnc(S)[nH]1 ?
Result :: false (0)

Query :: What outcome does the record of this test show for COc1c2c(c3c(c1C1OC(C)[C@@H](C)O1)CC(C)(C)O3)C(=O)c1ccccc1C2=O (stereo partly drawn) ?
Result :: false (0)

Query :: Returns: the outcome recorded for CCOC(=O)c1ccc2c(c1)Cc1cc([N+](=O)[O-])ccc1-2 in this assay.
Result :: false (0)

Query :: Could you please tell me the result logged for O=C1NCC2(CCNCC2)N1c1ccccc1 in this assay?
Result :: false (0)

Query :: Called result for Cc1c(NC(=S)NN)c(=O)n(-c2ccccc2)n1C
Result :: false (0)

Query :: Given COC(=O)C1CCC[C@H]2C(CO)=C(C)C(=O)[C@@H]12 (stereo partly drawn) , state the outcome it received in this test.
Result :: false (0)

Query :: Assay outcome for O=C1CNNC(Cn2nc(-c3ccccc3)c3ccccc3c2=O)=N1 : what was it?
Result :: false (0)

Query :: Entry O=C(O)c1cc2ccc(Cl)cc2c(O)c1C1=CCCCC1 : call = ?
Result :: false (0)

Query :: Identify the outcome logged in this assay for the compound shown: CN(CCc1ccccn1)C(=S)N/N=C(\c1ccccc1)c1ccccn1
Result :: true (1)

----------
- Tested on: UO-31
- METHOD_DESCRIPTION: NCI tumour cell line growth inhibition, 48 h
Calls of active or inactive are those of the source. Rule as the data show it: active = GI50 up to about 1.1 µM and inactive = higher.
Consider the following compounds; for each one, report its GI50.

Consider the worked cases shown below.
{"COMPOUND": "CCCCCCCCCCCCC(O)C1CCC(C(O)CCCCCCC(O)CCCCCCCC2=CC(C)OC2=O)O1 (stereo unspecified)", "TARGET_SYSTEM": "UO-31", "GI50": "3.08 µM (inactive)"}
{"COMPOUND": "CC1=C(N2CC2)C(=O)c2ccccc2C1=O", "TARGET_SYSTEM": "UO-31", "GI50": "0.78 µM (active)"}
{"COMPOUND": "CC(NC1CCCC[C@@H]1O)c1ccccc1 (stereo partly specified)", "TARGET_SYSTEM": "UO-31", "GI50": "> 100 µM (inactive)"}
{"COMPOUND": "CCNC(=S)N/N=C1\\C(=O)Nc2ccc([N+](=O)[O-])cc21", "TARGET_SYSTEM": "UO-31", "GI50": "25.8 µM (inactive)"}
{"COMPOUND": "CCN1CCN(c2ccc(Nc3ccnc4ccc5c(nnn5C)c34)cc2)CC1", "TARGET_SYSTEM": "UO-31", "GI50": "10.2 µM (inactive)"}

Turning to the following compound.
The compound identified as c1ccc(CCNc2ccccn2)nc1 registered its GI50 at > 100 µM (inactive)

----------
Answer each item with its documented GI50.
- Tested on: OVCAR-5
- METHOD_DESCRIPTION: NCI tumour cell line growth inhibition, 48 h
Active and inactive are the calls of the source. Rule as the data show it: active = GI50 up to about 1.1 µM and inactive = higher.

Example results:
{"MOLECULE": "COc1cccc2cc(C(=O)NC34CC5CC(CC(C5)C3)C4)c(=N)oc12", "TARGET_SYSTEM": "OVCAR-5", "GI50": "> 100 µM (inactive)"}
{"MOLECULE": "Fc1cccc(C2SCc3nc4ccccc4n32)c1F (centres undefined)", "TARGET_SYSTEM": "OVCAR-5", "GI50": "> 100 µM (inactive)"}
{"MOLECULE": "CC(=O)OCC(=O)O[C@@H]1[C@H]2[C@@H](OC(=O)c3ccccc3)[C@@H](C)C[C@]2(O)[C@H](OC(C)=O)[C@@]2(C)C(OC(C)=O)[C@]1(OC(C)=O)C[C@H]1C(=O)C(C)(C)C[C@@H]12 (some centres undefined)", "TARGET_SYSTEM": "OVCAR-5", "GI50": "> 50 µM (inactive)"}

# per-item lookup of GI50; items listed below
1. CCOC(=O)c1ccc(-n2cnc(-c3ccc([N+](=O)[O-])cc3)c2)cc1
2. CC(C)COP(C)(=O)C(N)(C(F)(F)F)C(F)(F)F (centres undefined)

Result ::
1: > 100 µM (inactive); 2: > 100 µM (inactive)
